All values here come from patent US9056832B2.

Biological target: UniProt Q15858
Experiment: FLIPR or FLIPR TETRA sodium dye assay with KCl and test article pre-incubation
Type: cell-based
Conditions: recombinant human Nav1.7 in HEK293 cells; CoroNa Green sodium dye; veratridine + scorpion venom; read-out: Nav1.7 IC50 (μM) ± SEM
propertyMeasured: IC50 (µM)

                                   compound    targetentity  assayresult
0  OC[C@H](O)c1cccc(-c2ccc(Oc3ccc(C(F)(F)F)cn3)cc2)n1  UniProt Q15858         4.89
1  CN(c1ccccc1)c1cc(-c2ccc(Oc3ccc(C(F)(F)F)cc3)cc2)cc(C(N)=O)n1  UniProt Q15858         0.25
2  OCC(O)c1cccc(-c2ccc(Oc3ncccc3C(F)(F)F)cc2)n1 (stereo not shown)  UniProt Q15858         2.65
3  N#Cc1cccc2c1ccn2-c1cc(-c2ccc(Oc3ccc(F)cc3)cc2)cc(C(N)=O)n1  UniProt Q15858         0.27

====

Target: human Nav1.7 (Homo sapiens (Human), UniProt Q15858)
Sequence (Q15858 other isoform, or with tags, fused parts or gaps): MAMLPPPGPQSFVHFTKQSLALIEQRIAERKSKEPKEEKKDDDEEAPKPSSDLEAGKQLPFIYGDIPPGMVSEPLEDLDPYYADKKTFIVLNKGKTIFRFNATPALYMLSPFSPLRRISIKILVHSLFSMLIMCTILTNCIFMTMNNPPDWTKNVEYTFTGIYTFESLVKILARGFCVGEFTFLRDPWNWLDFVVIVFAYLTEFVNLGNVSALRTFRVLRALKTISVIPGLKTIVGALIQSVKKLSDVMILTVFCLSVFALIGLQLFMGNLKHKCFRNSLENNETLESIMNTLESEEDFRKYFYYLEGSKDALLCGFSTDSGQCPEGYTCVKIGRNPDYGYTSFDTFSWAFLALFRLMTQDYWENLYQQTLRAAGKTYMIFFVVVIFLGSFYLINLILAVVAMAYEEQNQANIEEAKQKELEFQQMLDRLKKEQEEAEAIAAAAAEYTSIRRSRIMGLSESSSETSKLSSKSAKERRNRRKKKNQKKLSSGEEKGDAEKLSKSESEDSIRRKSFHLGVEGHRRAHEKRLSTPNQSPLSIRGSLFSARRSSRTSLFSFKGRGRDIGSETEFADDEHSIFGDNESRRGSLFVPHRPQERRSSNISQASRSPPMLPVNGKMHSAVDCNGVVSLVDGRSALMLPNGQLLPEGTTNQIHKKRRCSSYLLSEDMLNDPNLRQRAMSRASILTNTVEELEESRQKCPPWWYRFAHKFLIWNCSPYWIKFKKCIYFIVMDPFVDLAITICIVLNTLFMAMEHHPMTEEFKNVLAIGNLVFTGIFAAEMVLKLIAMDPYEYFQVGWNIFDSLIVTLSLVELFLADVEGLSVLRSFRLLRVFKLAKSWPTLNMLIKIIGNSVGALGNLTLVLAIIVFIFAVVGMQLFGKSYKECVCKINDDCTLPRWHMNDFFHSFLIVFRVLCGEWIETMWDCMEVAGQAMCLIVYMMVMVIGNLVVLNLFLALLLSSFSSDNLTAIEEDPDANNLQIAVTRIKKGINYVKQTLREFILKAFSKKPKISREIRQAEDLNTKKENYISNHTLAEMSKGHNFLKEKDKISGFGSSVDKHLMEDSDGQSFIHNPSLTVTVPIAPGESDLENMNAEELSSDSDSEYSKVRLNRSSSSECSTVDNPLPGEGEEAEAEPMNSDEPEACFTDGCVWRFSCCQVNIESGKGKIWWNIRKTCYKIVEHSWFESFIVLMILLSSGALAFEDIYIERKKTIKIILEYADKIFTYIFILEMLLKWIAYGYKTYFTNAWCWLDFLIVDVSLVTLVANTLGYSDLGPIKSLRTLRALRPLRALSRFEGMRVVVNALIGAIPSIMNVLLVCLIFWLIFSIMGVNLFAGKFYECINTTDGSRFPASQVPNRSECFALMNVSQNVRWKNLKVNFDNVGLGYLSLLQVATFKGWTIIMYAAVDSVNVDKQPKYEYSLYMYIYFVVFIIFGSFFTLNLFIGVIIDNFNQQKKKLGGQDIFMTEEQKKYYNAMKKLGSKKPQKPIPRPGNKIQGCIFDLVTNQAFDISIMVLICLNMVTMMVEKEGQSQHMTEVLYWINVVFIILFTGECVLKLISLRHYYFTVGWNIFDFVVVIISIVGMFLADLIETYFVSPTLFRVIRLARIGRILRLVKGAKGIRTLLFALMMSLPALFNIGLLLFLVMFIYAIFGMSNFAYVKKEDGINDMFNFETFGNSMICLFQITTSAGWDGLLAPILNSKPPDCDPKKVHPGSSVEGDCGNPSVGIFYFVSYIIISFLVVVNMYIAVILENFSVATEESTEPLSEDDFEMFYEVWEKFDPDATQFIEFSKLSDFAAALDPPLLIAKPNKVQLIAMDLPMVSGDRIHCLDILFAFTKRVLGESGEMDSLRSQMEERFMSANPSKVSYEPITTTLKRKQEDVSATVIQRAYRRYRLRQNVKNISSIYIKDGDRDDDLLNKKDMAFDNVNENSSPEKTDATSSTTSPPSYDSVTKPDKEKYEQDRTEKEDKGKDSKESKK
Test: FLIPR or FLIPR TETRA sodium dye assay with KCl and test article pre-incubation
Type: cell-based
Details: recombinant human Nav1.7 in HEK293 cells; CoroNa Green sodium dye; veratridine + scorpion venom; read-out: Nav1.7 IC50 (μM) ± SEM
# note: boundary value 1 µM maps to 0.0; IC50 below it maps to 1.0

>>> print(df.to_string())
                                    compound  discretelabel
 0  N#Cc1cc(C(F)(F)F)ccc1Oc1ccc(-c2cccc(CNCCN3CCNC3=O)n2)cc1 [compound 63]            1.0
 1  NC(=O)c1cc(NCc2ncccn2)cc(-c2ccc(Oc3ccc(F)cc3)cc2)n1 [compound 49]            1.0
 2  NC(=O)c1cc([C@@H](O)CO)cc(-c2ccc(Oc3ccc(OC(F)(F)F)cc3)cc2)n1 [compound 161]            0.0
 3  CN(c1ccccc1)c1cc(C(N)=O)nc(-c2ccc(Oc3ccc(F)cc3)cc2)c1 [compound 43]            1.0
 4  NC(=O)c1cc(NCCN2CCS(=O)(=O)CC2)cc(-c2ccc(Oc3ccc(F)cc3)cc2)n1 [compound 48]            1.0
 5  NC(=O)c1cc(NCCCn2ccnc2)cc(-c2ccc(Oc3ccc(F)cc3)cc2)n1 [compound 54]            1.0
 6  O=C(O)c1cc(N(CCc2nn[nH]n2)c2ccccc2)cc(-c2ccc(Oc3ccc(F)cc3)cc2)n1 [compound 152]            0.0
 7  OC[C@H](O)c1cc(N2CCNCC2)cc(-c2ccc(Oc3ccc(F)cc3)cc2)n1 [compound 21]            0.0
 8  NC(=O)c1cc(C[C@H](O)CO)cc(-c2ccc(Oc3ccc(F)cc3)cc2)n1 [compound 135]            0.0
 9  O=C1NCCN1CCNCc1cccc(-c2ccc(Oc3ccc(C(F)(F)F)cn3)cc2)n1 [compound 68]            1.0
10  NC(=O)c1cc(C(=O)NCCN2CCCCC2)nc(-c2ccc(Oc3ccc(F)cc3)cc2)c1 [compound 81]            0.0
11  O=C(O)CN(c1ccccc1)c1cc(-c2ccc(Oc3ccc(F)cc3)cc2)cc(C(=O)O)n1 [compound 121]            0.0
12  O=C1NCCN1CCNCc1ccnc(-c2ccc(Oc3ccc(F)cc3)cc2)c1 [compound 105]            1.0
13  O=C(NCCN1CCCCC1)c1cc([C@H](O)CO)cc(-c2ccc(Oc3ccc(F)cc3)cc2)n1 [compound 42]            0.0
14  NC(=O)c1cc(N2CCC(C(N)=O)CC2)cc(-c2ccc(Oc3ccc(F)cc3)cc2)n1 [compound 56]            1.0

====

Target: human Nav1.7 (Homo sapiens (Human), UniProt Q15858)
Test: FLIPR or FLIPR TETRA sodium dye assay with KCl and test article pre-incubation
Assay type: cell-based
Details: recombinant human Nav1.7 in HEK293 cells; CoroNa Green sodium dye; veratridine + scorpion venom; read-out: Nav1.7 IC50 (μM) ± SEM
propertyMeasured: log10(IC50) (log10 of the value in µM)

>>> df
                                    molecule  propertymeasured  assayresult
 0  N#Cc1cccc2c1ccn2-c1cc(C(=O)O)nc(-c2ccc(Oc3ccc(F)cc3)cc2)c1       log10(IC50)        -0.57
 1  N#Cc1cc(N2CCN(C(=N)N)CC2)cc(-c2ccc(Oc3ccc(F)cc3)cc2)n1       log10(IC50)         0.29
 2  NC(=O)c1cc(N2CCN(c3ncccn3)CC2)cc(-c2ccc(Oc3ccc(F)cc3)cc2)n1       log10(IC50)        -1.05
 3  NC(=O)c1cc([C@H](O)CO)cc(-c2ccc(Oc3ccc(F)cc3)cc2)n1       log10(IC50)        -0.62
 4  NC(=O)c1cc(NC(=O)Nc2ccccc2)cc(-c2ccc(Oc3ccc(F)cc3)cc2)n1       log10(IC50)         0.61
 5  NC(=O)c1cc([C@@H](O)CO)cc(-c2ccc(Oc3ccc(C(F)(F)F)cn3)cc2)n1       log10(IC50)         0.44
 6  Cc1ccc(Oc2ccc(-c3cccc(C(O)CO)n3)cc2)cn1 (stereo not shown) [compound 17]       log10(IC50)         0.44
 7  NC(=O)CN1CCC(CNc2cc(C(N)=O)nc(-c3ccc(Oc4ccc(F)cc4)cc3)c2)CC1       log10(IC50)        -0.70
 8  NC(=O)c1cc(N(CCC(=O)O)c2ccccc2)cc(-c2ccc(Oc3ccc(F)cc3)cc2)n1       log10(IC50)         0.10
 9  N#Cc1ccc(Oc2ccc(-c3cc([C@@H](O)CO)cc(C(N)=O)n3)cc2)cc1       log10(IC50)        -0.46
10  C[C@H](O)[C@@H](O)c1cc(C(N)=O)nc(-c2ccc(Oc3ccc(F)cc3)cc2)c1       log10(IC50)         0.24
11  NC(=O)c1cc(-c2ccc(Oc3ccc(F)cc3)cc2)cc(N(CCc2nn[nH]n2)c2ccccc2)n1       log10(IC50)        -0.80
12  OC[C@@H](O)c1cccc(-c2ccc(Oc3ccc(C(F)(F)F)cn3)cc2)n1       log10(IC50)         0.81
13  NC(=O)c1cc(-c2ccc(Oc3ccc(F)cc3)cc2)cc([C@H](O)CO)n1       log10(IC50)        -0.77

====

Target: human Nav1.7 (Homo sapiens (Human), UniProt Q15858)
Experiment: FLIPR or FLIPR TETRA sodium dye assay with KCl and test article pre-incubation
Type: cell-based
Conditions: recombinant human Nav1.7 in HEK293 cells; CoroNa Green sodium dye; veratridine + scorpion venom; read-out: Nav1.7 IC50 (μM) ± SEM
# note: boundary value 4 µM maps to condition not met; IC50 below it maps to condition met

>>> print(df.to_string())
                                   compound      discretelabel
0  NC(=O)c1cc(-c2ccc(Oc3cccc(OC(F)(F)F)c3)cc2)cc([C@H](O)CO)n1      condition met
1  NC(=O)c1cc([C@@H](O)CO)cc(-c2cccc(Oc3ccc(F)cc3)c2)n1  condition not met
2  C[C@H](Nc1cc(C#N)cc(-c2ccc(Oc3ccc(F)cc3)cc2)n1)C(N)=O  condition not met
3  O=C(O)c1cc(C(=O)NCCN2CCCCC2)nc(-c2ccc(Oc3ccc(F)cc3)cc2)c1  condition not met
4  Cc1ccc(Oc2ccc(-c3cccc(C(O)CO)n3)cc2)cn1 (centres unmarked) [compound 27]  condition not met
5  NC(=O)c1cc([C@@H](O)CO)cc(-c2ccc(-c3ccc(F)cc3)cc2)n1      condition met
6  NC(=O)c1cc([C@@H](O)CO)cc(-c2ccc(Oc3ccc(Cl)cc3F)cc2)n1      condition met
7  N#Cc1cccc2c1ccn2-c1cc(C(N)=O)nc(-c2ccc(Oc3ccc(F)cc3)cc2)c1      condition met

====

Biological target: human Nav1.7 (Homo sapiens (Human))
Experiment: FLIPR or FLIPR TETRA sodium dye assay with KCl and test article pre-incubation
Type: cell-based
Conditions: recombinant human Nav1.7 in HEK293 cells; CoroNa Green sodium dye; veratridine + scorpion venom; read-out: Nav1.7 IC50 (μM) ± SEM
# note: boundary value 2 µM maps to f; IC50 below it maps to t

In [3]: df
Out[3]:
                                    molecule                         targetentity  discretelabel
 0  CN(c1ccccc1)c1cc(-c2ccc(Oc3ccc(F)cc3)cc2)cc(C(N)=O)n1  human Nav1.7 (Homo sapiens (Human))              t
 1  N#Cc1cccc2c1ccn2-c1cc(-c2ccc(Oc3ccc(F)cc3)cc2)cc(C(=O)O)n1  human Nav1.7 (Homo sapiens (Human))              t
 2  NC(=O)c1cc(-c2ccc(Oc3ccc(F)cc3)cc2)cc(N(CCC(=O)O)c2ccccc2)n1  human Nav1.7 (Homo sapiens (Human))              f
 3  OCC(O)c1cccc(-c2ccc(Oc3ncc(C(F)(F)F)cc3Cl)cc2)n1 (stereo not shown)  human Nav1.7 (Homo sapiens (Human))              t
 4  N#CCN(CCN1CCNC1=O)Cc1cccc(-c2ccc(Oc3ccc(F)cc3)cc2)n1  human Nav1.7 (Homo sapiens (Human))              t
 5  NC(=O)c1cc(NC(=O)NCC(=O)O)cc(-c2ccc(Oc3ccc(F)cc3)cc2)n1  human Nav1.7 (Homo sapiens (Human))              f
 6  CC(C)NC(=O)N1CCN(c2cc(C#N)nc(-c3ccc(Oc4ccc(F)cc4)cc3)c2)CC1  human Nav1.7 (Homo sapiens (Human))              t
 7  O=C(NCCN1CCCCC1)c1cc(-c2nnn[nH]2)cc(-c2ccc(Oc3ccc(F)cc3)cc2)n1  human Nav1.7 (Homo sapiens (Human))              f
 8  NC(=O)c1cc(-c2ccc(Oc3ccc(F)cc3)cc2)nc([C@@H](O)CO)c1  human Nav1.7 (Homo sapiens (Human))              f
 9  NC(=O)c1cc(NC(CO)CO)cc(-c2ccc(Oc3ccc(F)cc3)cc2)n1  human Nav1.7 (Homo sapiens (Human))              f
10  NC(=O)c1cc([C@@H](O)CO)cc(-c2ccc(Oc3cccc(OC(F)(F)F)c3)cc2)n1  human Nav1.7 (Homo sapiens (Human))              t
11  NC(=O)c1cc(CN2CCNCC2)cc(-c2ccc(Oc3ccc(F)cc3)cc2)n1  human Nav1.7 (Homo sapiens (Human))              t
12  O=C(O)c1cc(-c2ccc(Oc3ccc(F)cc3)cc2)cc(N(CCc2nn[nH]n2)c2ccccc2)n1  human Nav1.7 (Homo sapiens (Human))              f
13  NC(=O)c1cc([C@H](O)CO)cc(-c2ccc(Oc3ccc(OC(F)(F)F)cc3)cc2)n1  human Nav1.7 (Homo sapiens (Human))              t
14  CN(c1ccc(C(=O)O)cc1)c1cc(-c2ccc(Oc3ccc(F)cc3)cc2)cc(C(N)=O)n1  human Nav1.7 (Homo sapiens (Human))              f
